Target: human α4β2 (Homo sapiens, UniProt P17787+P43681)
Construct: host or cells: SH-EP1
Assay: Competition binding to human α4β2 nicotinic receptors in membrane preparations ([3H]-nicotine)
Conditions: [3H]-nicotine competition, membranes; read-out: Human α4β2 Ki
parameter measured: Ki

Record excerpt, results attached:
Task: Give a short answer stating reported Ki for CN(C)C1C2(CCC2)[C@H]2CC[C@]1(C)C2(C)C (stereo partly drawn) [drawing 36] .
Result: > 10 µM

Task: Specify measured Ki for CNC1C2(CCC2)[C@H]2CC[C@]1(C)C2(C)C (stereo partly drawn) [drawing 31] .
Result: > 10 µM

Others:
Task: Given CN(C)C1C2(CCC2)[C@H]2CC[C@]1(C)C2(C)C (stereo partly drawn) [drawing 35] , respond with its Ki.
Result: > 10 µM
